measurement_target: T1, human PACAP38 (human, not fully specified; C-terminal lysine is amidated; N-terminal or C-terminal biotin in the HTRF and PC-12 cell binding assays)
T1 peptide: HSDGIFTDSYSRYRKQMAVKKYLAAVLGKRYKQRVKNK
measurement_notes: cell-based or functional assay
measured_attribute: IC50, 0.1 nM PACAP38-induced PAC1-R mediated cAMP increase (nM)

>>> numeric_value("anti-PACAP antibody Ab4.H (antibody, human IgG1, kappa, N297A, V domains shown, humanized form of Ab4, full length) VH: EVQLVESGGGLVQPGGSLRLSCAASGFSLSSYDMSWVRQAPGKGLEWIGIINTNDDTWYASWVKGRFTISRDNSKNTLYLQMNSLRAEDTAVYYCARISDAYVFDYAYYFTLWGQGTLVTVSS VL: DIQMTQSPSTLSASVGDRVTITCLASQNIYNSLAWYQQKPGKAPKLLIYRASTLASGVPSRFSGSGSGTEFTLTISSLQPDDFATYYCQQGAGADNIGNPFGGGTKVEIKR")
0.307
>>> numeric_value("anti-PACAP antibody Ab5 (antibody, human IgG1, kappa, N297A, V domains shown, full-length rabbit/human chimeric antibody) VH: QSVEESGGRLVTPGTPLTLTCTVSGFSLSSYAMIWVRQAPGKGLEWIGIIYDNGDTYYASWAKGRFTISKTSTTVYLKIASPTTEDTATYFCAREPGSTTQNDLWGQGTLVTVSS VL: DVVMTQTPASVSEPVGGTVTIKCQASENIYNSLLWYQQKPGQPPKLLIYRASTLASGVSSRFKGSGSGTEFTLTISDLECADAATYYCQNYYNIWTNGAAFGGGTEVVVKR")
0.327
>>> numeric_value("anti-PACAP antibody Ab5.H (antibody, human IgG1, kappa, N297A, V domains shown, humanized form of Ab5, full length) VH: EVQLVESGGGLVQPGGSLRLSCAASGFSLSSYAMIWVRQAPGKGLEWVGIIYDNGDTYYASSAKGRFTISRDNSKNTVYLQMNSLRAEDTAVYFCAREPGSTTQNDLWGQGTLVTVSS VL: DVQMTQSPSTLSASVGDRVTITCQASENIYNSLLWYQQKPGKAPKLLIYRASTLASGVPSRFSGSGSGTEFTLTISSLQPDDFATYYCQNYYNIWTNGAAFGGGTKVEIKR")
0.378

Origin of measurements: patent US20190233498A1
